What inhibition of SARS-CoV-2 cytopathic effect was measured for each of the following?
Tested on: Vero E6 infected with SARS-CoV-2
Assay Notes: inhibition of SARS-CoV-2 cytopathic effect; higher = more antiviral protection, active = above 15
Measurement Context: 10000 nM; 48 h
Answers are plain numbers, in %.

O=C(Oc1cccc2cccnc12)c1ccccc1    -3.29

Batch of 4 molecules: report inhibition of SARS-CoV-2 cytopathic effect for each.
1. Oc1ccc2ccccc2c1
2. OCCN1CCN(CC/C=C2/c3ccccc3Sc3ccc(Cl)cc32)CC1
3. COc1cc2nccc(Oc3ccc(NC(=O)Nc4ccc(F)cc4F)c(F)c3)c2cc1OC
4. C[N+]12CCC(CC1)C(OC(=O)C(O)(c1ccccc1)c1ccccc1)C2 (centres undefined)

OUTPUT:
1: 2.59; 2: 8.42; 3: 5.75; 4: -1.97

Batch of 4 molecules: report inhibition of SARS-CoV-2 cytopathic effect for each.
1. COc1cc2c3cc1Oc1cc(ccc1O)C[C@@H]1c4c(cc(OC)c(O)c4Oc4ccc(cc4)C[C@@H]3N(C)CC2)CC[N+]1(C)C
2. O=C(NC(NC(=S)Nc1ccc(F)c([N+](=O)[O-])c1)C(Cl)(Cl)Cl)C(c1ccccc1)c1ccccc1 (centres undefined)
3. O=C(NCC1CCCCN1)c1cc(OCC(F)(F)F)ccc1OCC(F)(F)F (centres undefined) [flecainide]
4. N=C(N)N/N=C/c1c(Cl)cccc1Cl [guanaben-acetate]

OUTPUT:
1.45
-5.53
-3.89
-1.82

----------
System: Vero E6 infected with SARS-CoV-2
Assay Notes: SARS-CoV-2 infection rate relative to infected DMSO; higher = more infection, active = 60 or less
Measurement Context: 24 h
What SARS-CoV-2 infection rate was measured for each of the following?
Answers are plain numbers, in %.

These recorded examples may help you get a feel for the data.
OC(CN1CCN(c2cccc(Cl)c2)CC1)C(c1ccccc1)c1ccccc1 (centres undefined) (10 µM)    96.5
Cc1ncc(COP(=O)([O-])[O-])c(CN(CCN(CC(=O)O)Cc2c(COP(=O)([O-])O)cnc(C)c2O)CC(=O)O)c1O.[Mn].[Na+].[Na+].[Na+] [Mangafodipir (trisodium)] (10 µM)    120
CC1=C(C(=O)O)N2C(=O)[C@@H](NC(=O)[C@H](N)C3=CCC=CC3)[C@H]2SC1 [cephradine] (10 µM)    106
CCOCc1nc2c(N)nc3ccccc3c2n1CC(C)(C)O [resiquimod] (10 µM)    113
O=C(O)C(=O)Nc1cccc(-c2nnn[nH]2)c1 [acitazanolast] (10 µM)    95
Cc1cccc(-c2[nH]c(CNc3ccccc3F)nc2-c2ccc3ncnn3c2)n1 (10 µM)    109
CO[C@H]1C[C@H](O[C@H]2CC[C@@]3(C)[C@H](CC[C@@H]4[C@@H]3CC[C@]3(C)[C@@H](C5=CC(=O)OC5)[C@@H](OC(C)=O)C[C@]43O)C2)O[C@@H](C)[C@@H]1O [oleandrin] (0.833333 µM)    118
COc1cc(N)c(Cl)cc1C(=O)OCCN1CCCCC1 (10 µM)    110

Batch of 6 compounds: report SARS-CoV-2 infection rate for each.
1. Oc1ccc2c3c1O[C@H]1c4[nH]c5c(c4C[C@@]4(O)[C@@H](C2)N(CC2CC2)CC[C@]314)C[C@@]1(O)[C@H]2Cc3ccc(O)c4c3[C@@]1(CCN2CC1CC1)[C@H]5O4 [nor-binaltorphimine] (10 µM)
2. CCC1(C)CC(=O)NC1=O (centres undefined) [ethosuximide] (10 µM)
3. Cc1cc(O)c(C(C)C)cc1Cl [chlorothymol] (10 µM)
4. NS(=O)(=O)C#Cc1ccccc1 [pifithrin-mu] (0.833333 µM)
5. CCN1C[C@H](C)n2c(c(O)c3c(=O)n(Cc4ccc(F)c(Cl)c4)nc(C(=O)NC)c32)C1=O (10 µM)
6. C=CC[N@@+]12CC[C@@]34c5ccccc5N5/C=C6/[C@H]7C[C@H]8[C@@]9(CC[N@@+]8(CC=C)C/C7=C/CO)c7ccccc7N(/C=C(/[C@@H](C[C@@H]31)/C(=C\CO)C2)[C@H]54)[C@@H]69 [alcuronium] (10 µM)

OUTPUT:
1. 114
2. 104
3. 104
4. 92
5. 97.5
6. 114
